Values from ChEMBL document CHEMBL1123723

experiment: Antiradiation evaluation test was carried out in mice and lethal dose for antiradiation effect at 800 rads was evaluated by the x-ray.; assay type: ADME, organism-based; conditions: mouse, in vivo
Hi there, I'd appreciate the recorded LD50 for every entry that follows.
Please answer using a numeric value trailed by its unit.

Incoming: Retrieve LD50 measured for `CCN(CC)C(=S)SC/C(=N\c1ccccc1)Nc1ccccc1` and print it.
Outgoing: 840 mg/kg

Incoming: Retrieve LD50 measured for `CCN(CC)C(=S)SC/C(=N\c1ccccc1)Nc1ccc(C)cc1` and print it.
Outgoing: 720 mg/kg

Incoming: Retrieve LD50 measured for `CCOc1ccc(N/C(CSC(=S)N(CC)CC)=N/c2ccccc2)cc1` and print it.
Outgoing: 800 mg/kg

Incoming: Retrieve LD50 measured for `CCOc1ccc(/N=C(\CSC(=S)N(CC)CC)Nc2ccc(OCC)cc2)cc1` and print it.
Outgoing: 1240 mg/kg

Incoming: Retrieve LD50 measured for `CCN(CC)C(=S)SC/C(=N\c1ccc(C)cc1)Nc1ccc(C)cc1` and print it.
Outgoing: 970 mg/kg
